assayed-system: human cathepsin K (UniProt P43236)
assay-summary: Cathepsin K Assay (hrbCat K)
Type: biochemical
details: Z-Leu-Arg-AMC substrate, pH 5.5, 15 min preincubation; read-out: hrbCat K (IP (nM))
measurement-type: IC50 (nM)

>>> readout_number("N#CC1(NC(=O)[C@@H]2CCCC[C@H]2c2nc(-c3cnc(N)nc3)sc2-c2ccc(N3CCS(=O)(=O)CC3)cc2)CC1")
2.3
>>> readout_number("N#CC1(NC(=O)[C@@H]2C[C@@H](F)CC[C@H]2c2nc(N3CCOCC3)sc2-c2ccc(N3CCS(=O)(=O)CC3)cc2)CC1")
2.4
>>> readout_number("N#CC1(NC(=O)[C@@H]2CCCC[C@H]2c2nc(C(O)C(F)(F)F)sc2-c2ccc(N3CCS(=O)(=O)CC3)cc2)CC1 (mixture of isomers)")
5.1

====

# reported IC50; entries follow
assayed-system: human cathepsin F (Homo sapiens, UniProt Q9UBX1)
Sequence (Q9UBX1 271-484): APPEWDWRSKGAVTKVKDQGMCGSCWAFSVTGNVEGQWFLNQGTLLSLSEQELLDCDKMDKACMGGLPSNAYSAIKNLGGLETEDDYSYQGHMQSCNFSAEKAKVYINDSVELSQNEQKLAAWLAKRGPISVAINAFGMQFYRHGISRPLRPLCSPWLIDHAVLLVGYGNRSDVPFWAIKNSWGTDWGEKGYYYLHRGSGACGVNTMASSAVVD
assay-summary: Cathepsin F assay (hCat F)
Type: biochemical
details: Z-Phe-Arg-AMC substrate, pH 5.5, 15 min preincubation; read-out: hCat F (IP (nM))
measurement-type: IC50 (nM)

>>> readout_number("N#CC(CC(F)(F)F)NC(=O)[C@@H]1CCCC[C@H]1c1nc(-c2ccc(F)cn2)sc1-c1ccc(N2CCS(=O)(=O)CC2)cc1 (single isomer, unassigned) [Example 194]")
1920
>>> readout_number("C[C@@H](C#N)NC(=O)[C@@H]1C[C@@H](F)CC[C@H]1c1nc(C(C)(C)C)sc1-c1ccc(N2CCS(=O)(=O)CC2)cc1")
2570
>>> readout_number("CC1(C)CN(c2nc([C@@H]3CCCC[C@H]3C(=O)NC3(C#N)CC3)c(-c3ccc(N4CCS(=O)(=O)CC4)cc3)s2)CCO1")
3400
>>> readout_number("N#CC1(NC(=O)[C@@H]2CC(F)(F)CC[C@H]2c2nc(CCC(F)(F)F)sc2-c2ccc(N3CCS(=O)(=O)CC3)cc2)CC1")
223

====

assayed-system: human cathepsin K (UniProt P43236)
assay-summary: Cathepsin K Assay (hrbCat K)
Type: biochemical
details: Z-Leu-Arg-AMC substrate, pH 5.5, 15 min preincubation; read-out: hrbCat K (IP (nM))
Method: Cathepsin K Assay (hrbCat K) Then 0.5 μL of DMSO from each dilution were added to 18.75 μL of assay buffer (MES, 50 mM (pH 5.5); EDTA, 2.5 mM; DTT, 2.5 mM and 10% DMSO) containing human cathepsin K (0.4 nM) in assay buffer solution. The assay solutions were mixed for 5-10 seconds on a shaker plate and incubated for 15 minutes at room temperature. […] Percent of inhibition were calculated by fitting experimental values to standard mathematical model for dose response curve.
Listing: log10 of IC50 of selected compounds
measurement-type: log10 of IC50 (log10 of the value in nM)

>>> readout_number("N#CC1(NC(=O)[C@@H]2C[C@H](F)CC[C@H]2c2nc(-c3ccc(F)cc3)sc2-c2ccc(N3CCS(=O)(=O)CC3)cc2)CC1")
0.18
>>> readout_number("C[C@@H](C#N)NC(=O)[C@@H]1C[C@@H](F)CC[C@H]1c1nc(C(C)(C)C)oc1-c1ccc(N2CCS(=O)(=O)CC2)cc1")
0.43
>>> readout_number("N#CC1(NC(=O)[C@@H]2CCCC[C@H]2c2nc(-c3cnc(C(F)(F)F)nc3)sc2-c2ccc(N3CCS(=O)(=O)CC3)cc2)CC1")
-0.22
>>> readout_number("CS(=O)(=O)c1ccc(-c2sc(-c3cncc(F)c3)nc2[C@@H]2CCCC[C@H]2C(=O)NC2(C#N)CC2)cc1")
0.88
>>> readout_number("N#CC1(NC(=O)[C@@H]2CC3CC3C[C@H]2c2nc(-c3cncc(Cl)c3)sc2-c2ccc(N3CCS(=O)(=O)CC3)cc2)CC1 (single isomer, unassigned) [Example 113]")
-0.10
>>> readout_number("C[C@@H](C#N)NC(=O)[C@@H]1C[C@@H](F)CC[C@H]1c1nc(C2CC(F)C2)sc1-c1ccc(N2CCS(=O)(=O)CC2)cc1 (single isomer, unassigned) [Example 236]")
0.57
>>> readout_number("N#CC1(NC(=O)[C@@H]2CCCC[C@H]2c2nc(Oc3ccc(F)cc3F)sc2-c2ccc(N3CCS(=O)(=O)CC3)cc2)CC1")
0.62
>>> readout_number("CNC(=O)N1CC(c2ccc(-c3sc(-c4ccc(F)cc4)nc3[C@@H]3CCCC[C@H]3C(=O)NC3(C#N)CC3)cc2)C1")
0.30
>>> readout_number("N#CC1(NC(=O)[C@@H]2CCCC[C@H]2c2nc(C3CCCOC3)sc2-c2ccc(N3CCS(=O)(=O)CC3)cc2)CC1 (stereo partly drawn)")
0.66
>>> readout_number("N#CC1(NC(=O)[C@@H]2C[C@@H](F)CC[C@H]2c2nc(CF)sc2-c2ccc(N3CCS(=O)(=O)CC3)cc2)CC1")
0.54
>>> readout_number("N#CC1(NC(=O)[C@@H]2CCC(F)(F)C[C@H]2c2nc(-c3ccc(F)cn3)sc2-c2ccc(N3CCS(=O)(=O)CC3)cc2)CC1")
0.52
>>> readout_number("N#CC1(NC(=O)[C@@H]2CCCC[C@H]2c2nc(NS(=O)(=O)c3ccccc3)sc2-c2ccc(N3CCS(=O)(=O)CC3)cc2)CC1")
2.06

====

assayed-system: UniProt:P43236
assay-summary: Cathepsin K Assay (hrbCat K)
Assay type: biochemical
details: Z-Leu-Arg-AMC substrate, pH 5.5, 15 min preincubation; read-out: hrbCat K (IP (nM))
measurement-type: IC50 (nM)

>>> readout_number("CC(C#N)NC(=O)[C@@H]1C[C@@H](F)CC[C@H]1c1nc(-c2cncc(F)c2)sc1-c1ccc(N2CCS(=O)(=O)CC2)cc1 (single isomer, unassigned) [Example 126]")
1.7
>>> readout_number("N#CCNC(=O)C1CCCCC1c1nc(-c2ccccc2)sc1-c1ccc(N2CCS(=O)(=O)CC2)cc1 (racemic)")
2.1
>>> readout_number("N#CC1(NC(=O)[C@@H]2CCCC[C@H]2c2nc(N3CCOCC3)sc2-c2ccc(N3CCS(=O)(=O)CC3)cc2)CC1")
1.8

====

The following compounds are listed with their measured IC50 values.
assayed-system: human cathepsin K (UniProt P43236)
assay-summary: Cathepsin K Assay (hrbCat K)
Type: biochemical
details: Z-Leu-Arg-AMC substrate, pH 5.5, 15 min preincubation; read-out: hrbCat K (IP (nM))
measurement-type: IC50 (nM)

>>> readout_number("N#CC1(NC(=O)[C@@H]2CCCC[C@H]2c2nc([C@@H]3CCCCO3)sc2-c2ccc(N3CCS(=O)(=O)CC3)cc2)CC1")
3.6
>>> readout_number("Cc1nc([C@@H]2CC[C@H](F)C[C@H]2C(=O)N[C@@H](C)C#N)c(-c2ccc(N3CCC(F)(F)CC3)cc2)s1")
8.5
>>> readout_number("N#CC1(NC(=O)[C@@H]2CCCC[C@H]2c2nc(Oc3ccccc3)sc2-c2ccc(N3CCS(=O)(=O)CC3)cc2)CC1")
2.5
>>> readout_number("COc1ccc(-c2nc([C@@H]3CCCC[C@H]3C(=O)NC3(C#N)CC3)c(-c3ccc(N4CCS(=O)(=O)CC4)cc3)s2)cn1")
1.8
>>> readout_number("C[C@@H](C#N)NC(=O)[C@@H]1C[C@@H](F)CC[C@H]1c1nc(C(F)F)sc1-c1ccc(N2CCS(=O)(=O)CC2)cc1")
1.6
>>> readout_number("Cc1ccc(-c2nc([C@@H]3CC[C@H](F)C[C@H]3C(=O)N[C@H](C#N)C(C)C)c(-c3ccc(N4CCS(=O)(=O)CC4)cc3)s2)nn1")
1.5

====

assayed-system: human cathepsin F (Homo sapiens, UniProt Q9UBX1)
Sequence (Q9UBX1 271-484): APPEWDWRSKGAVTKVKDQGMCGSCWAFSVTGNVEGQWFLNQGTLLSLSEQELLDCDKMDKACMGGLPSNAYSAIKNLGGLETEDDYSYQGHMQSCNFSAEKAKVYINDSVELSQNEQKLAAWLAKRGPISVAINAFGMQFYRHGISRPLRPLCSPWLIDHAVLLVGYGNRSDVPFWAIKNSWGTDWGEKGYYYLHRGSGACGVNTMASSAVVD
assay-summary: Cathepsin F assay (hCat F)
Type: biochemical
details: Z-Phe-Arg-AMC substrate, pH 5.5, 15 min preincubation; read-out: hCat F (IP (nM))
The entries below are paired with their reported IC50.
measurement-type: IC50 (nM)

>>> readout_number("Cc1nc(C2CCCCC2C(=O)NCC#N)c(-c2ccc(N3CCS(=O)(=O)CC3)cc2)s1 (racemic)")
3280
>>> readout_number("N#CC1(NC(=O)[C@@H]2CCCC[C@H]2c2nc(N3CCCCC3)sc2-c2ccc(N3CCS(=O)(=O)CC3)cc2)CC1")
1000
>>> readout_number("CC(C)OC(=O)N1CC(c2ccc(-c3sc(-c4ccc(F)cc4)nc3[C@@H]3CCCC[C@H]3C(=O)NC3(C#N)CC3)cc2)C1")
124
>>> readout_number("C[C@@H](C#N)NC(=O)[C@@H]1C[C@@H](F)CC[C@H]1c1nc(C2CC(F)C2)sc1-c1ccc(N2CCS(=O)(=O)CC2)cc1 (single isomer, unassigned) [Example 236]")
4500
>>> readout_number("N#CC1(NC(=O)[C@@H]2C[C@H](F)CC[C@H]2c2nc(-c3ccc(F)cc3)sc2-c2ccc(N3CCS(=O)(=O)CC3)cc2)CC1")
197
>>> readout_number("N#CC1(NC(=O)[C@@H]2CCCC[C@H]2c2nc(-c3cccc(C4CCOCC4)c3)sc2-c2ccc(N3CCS(=O)(=O)CC3)cc2)CC1")
3330
